All values here come from ChEMBL document CHEMBL3867445.

measurement-description: Antiinflammatory activity in human neutrophils assessed as inhibition of fMLP/CB-induced superoxide anion generation by measuring superoxide dismutase-inhibitable reduction of ferricytochrome c at 10 uM preincubated for 5 mins followed by fMLP/CB-induction measured after 10 mins
Format: functional
assay-conditions: Neutrophil
Measured inhibition at 10 µM, listed per entry.
The figure you give is taken to be in %; do not add the unit.

Sample records with inhibition at 10 µM:
{"columns": ["molecule", "unit-abbreviation", "inhibition at 10 µM"],
 "data": [
  ["CC1=C[C@H](O)CC(C)(C)[C@]12CC[C@](C)(Br)[C@H](Cl)C2", "%", 12],
  ["C=C1C[C@H](O)[C@@H](Br)C(C)(C)[C@@]12C=C[C@](C)(O)CC2 [ISORIGIDOL]", "%", 11],
  ["C=C1C[C@@H](O)[C@@H](Br)C(C)(C)[C@@]12C=C/C(=C\\Br)CC2", "%", 24],
  ["C=C1C[C@@H](O)[C@@H](Br)C(C)(C)[C@@]12C=C[C@](O)(C(Br)Br)CC2", "%", 19],
  ["C=C1C[C@@H](O)[C@@H](Br)C(C)(C)[C@]12CC[C@](C)(Br)[C@@H](Cl)C2", "%", 25]
]}

Query: Please give the measured inhibition at 10 µM for this molecule: CC1=CC(=O)CC(C)(C)[C@@]12C=C/C(=C\Br)CC2
Response: 6

Query: How about CC[C@H](Nc1ncnc2[nH]cnc12)c1nc2cccc(F)c2c(=O)n1-c1ccccc1 [IDELALISIB] ?
Response: 103

Query: Now give it for C=C1C[C@@H](O)[C@@H](Br)C(C)(C)[C@@]12C=C[C@](O)(CO)CC2 too.
Response: 7

Query: Follow-up entry: C=C1C[C@@H](O)[C@@H](Br)C(C)(C)[C@@]12C=CC(=O)CC2
Response: 7
